Form field: GI50 (one value per entry).
test system: A549; test: NCI tumour cell line growth inhibition, 48 h
Activity calls are given as the source filed them. Cut-off read from the data, not from the text of the source: active = GI50 up to about 1.1 µM and inactive = higher.

Completed entries (count: 3):
{"MOLECULE": "C[C@H](N)C(=O)N[C@@H]1[C@H]2C(=C(O)C[C@@H](O)[C@@H]2O)C(=O)O[C@@H]1C", "RESULT": "> 100 µM (inactive)"}
{"MOLECULE": "CCOC(=O)C1=CN=C2C(=O)N(c3ccccc3)N(C)C2(C)C1=N (configuration not stated)", "RESULT": "> 100 µM (inactive)"}
{"MOLECULE": "O=Nc1ccc(O)c2ncccc12", "RESULT": "2.5 µM (inactive)"}

Give reported GI50 value for COC(=O)[C@@]12CC3CN(Cc4c1[nH]c1ccccc41)C2CC3=O
> 100 µM (inactive)

Please list GI50 recorded for the molecule COC(=O)N/N=C/c1oc(-c2ccccc2)c(-c2ccccc2)c1[N+](=O)[O-]
> 100 µM (inactive)

Name the recorded GI50 of the item CC1(C)OC[C@@H](C[C@H](O)COCc2ccccc2)O1 in your answer.
> 100 µM (inactive)

Output GI50 of O=C(/C=C/c1ccsc1)c1ccc(Cl)cc1
> 100 µM (inactive)

Output GI50 of Cc1ccccc1[P+](C)(c1ccccc1C)c1ccccc1C
13.1 µM (inactive)

Provide only the value of recorded GI50 for CC1=NC(=Cc2ccc(O)cc2)C(=O)N1n1c(-c2ccccc2)nc2ccccc2c1=O
> 100 µM (inactive)

Hello, please tell me recorded GI50 for this one: NC(Cc1ccc(S(=O)(=O)O)cc1)C(=O)NC(Cc1ccc(S(=O)(=O)O)cc1)C(=O)O (configuration not stated)
> 100 µM (inactive)

Note GI50 for the molecule shown: Cn1c(=O)n(CC(Br)CBr)c(=O)n(CC(Br)CBr)c1=O (configuration not stated)
40.3 µM (inactive)

Identify the reported GI50 for the following entry. CCN(CC)CC(O)C1CCC(c2ccccc2)CC1 (configuration not stated)
32.6 µM (inactive)

For the molecule CC(C)(C)C(=O)OCC1CCC[N+]2(C)CCCCC12 (configuration not stated) , report GI50.
> 100 µM (inactive)

Answer with the recorded GI50 for the molecule listed here: O/N=C1/C(=C/c2ccc(Oc3ccccc3)cc2)CCCC1C(NO)c1ccc(Oc2ccccc2)cc1 (configuration not stated)
13.8 µM (inactive)

Tell me its GI50 given CCOC(=O)/C=C1/Nc2cc(F)c(F)cc2NC1=O as the entry.
> 100 µM (inactive)

Recall and state the measured GI50 for O=C1OS2(OCc3cccc4cccc2c34)c2ccccc21 (configuration not stated) .
> 100 µM (inactive)

Item N#CC(C#N)/N=C/c1ccncc1 : provide GI50
> 100 µM (inactive)

Using known records, supply GI50 for COc1ccc(C(OCC2OC(n3cnc4c(=O)n(Cc5ccccc5[N+](=O)[O-])nnc43)C(O)C2O)(c2ccccc2)c2ccc(OC)cc2)cc1 (configuration not stated)
5.57 µM (inactive)

Quote GI50 reported for N#Cc1c(O)n(-c2ccccc2)c(=O)c2c(N)n[nH]c12 please.
> 100 µM (inactive)

Fill in reported GI50 for this entry: O=C1NCN(c2ccccc2)C12CCN(CCc1ccc3[nH]c(=S)[nH]c3c1)CC2
66.5 µM (inactive)

Hello, please tell me recorded GI50 for this one: Cc1[nH]c(=O)[nH]c(=S)c1C(=O)NC(C)(CO)CO
> 100 µM (inactive)

For COc1cc2c(cc1OC)C(C(CBr)CBr)N(C1CCCC1)CC2 (configuration not stated) , write its GI50.
> 100 µM (inactive)

Please give the documented GI50 of O=C1/C(=C/c2ccc(O)cc2)CCCC1CN1CCCCC1 (configuration not stated)
17.2 µM (inactive)

Tell me GI50 reported for BrCC[N+]12CC[N+](CCBr)(CC1)C2
> 100 µM (inactive)

Return the recorded GI50 value; entry: O=c1/c(=C/c2ccc(Cl)cc2Cl)sc2nc3ccccc3n12
> 100 µM (inactive)

Please give measured GI50 of the following entry: C=C1C(=O)C[C@H]2C(=C)C(=O)O[C@@H]2C2C1CC[C@@]2(C)O (some centres not stated)
44.4 µM (inactive)

Supply measured GI50 of O=C1C=C(Nc2ccc(Br)cc2)c2ccccc2/C1=N/O in your reply.
1.98 µM (inactive)
